Values from the supplement of paper PMC8728848

# target: Neu5Ac(a2-3)Gal(b1-3)[Fuc(a1-4)]GlcNAc(b1-3)Gal(b1-4)[Fuc(a1-3)]GlcNAc
# protocol_notes: glycan array binding signal (z-score within array); higher = stronger binding
# condition_set: glycan notation: IUPAC condensed, linker removed
Only a selection was taken, and the strongest signals are over-represented in it overall.
observation_type: glycan array binding signal (z-score)
Number, no unit, nothing else.

Form field glycan array binding signal (z-score), entry Neuropilin-1 (Homo sapiens), O14786 (protein) FKCMEALGMESGEIHSDQITASSQYSTNWSAERSRLNYPENGWTPGEDSYREWIQVDLGLLRFVTAVGTQGAISKETKKKYYVKTYKIDVSSNGEDWITIKEGNKPVLFQGNTNPTDVVVAVFPKPLITRFVRIKPATWETGISMRFEVYGCKITDYPCSGMLGMVSGLISDSQITSSNQGDRNWMPENIRLVTSRSGWALPPAPHSYINEWLQIDLGEEKIVRGIIIQGGKHRENKVFMRKFKIGYSNNGSDWKMIMDDSKRKAKSFEGNNNYDTPELRTFPALSTRFIRIYPERATHGGLGLRMELLGCEVE : 0.065

Form field glycan array binding signal (z-score), entry CFEM-SCL (Saccharomyces cerevisiae), O13547 (protein) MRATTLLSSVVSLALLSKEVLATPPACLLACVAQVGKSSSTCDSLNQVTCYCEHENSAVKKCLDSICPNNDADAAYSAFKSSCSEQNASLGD : -0.234

Form field glycan array binding signal (z-score), entry UEA-I (Ulex europaeus), P22972 (protein) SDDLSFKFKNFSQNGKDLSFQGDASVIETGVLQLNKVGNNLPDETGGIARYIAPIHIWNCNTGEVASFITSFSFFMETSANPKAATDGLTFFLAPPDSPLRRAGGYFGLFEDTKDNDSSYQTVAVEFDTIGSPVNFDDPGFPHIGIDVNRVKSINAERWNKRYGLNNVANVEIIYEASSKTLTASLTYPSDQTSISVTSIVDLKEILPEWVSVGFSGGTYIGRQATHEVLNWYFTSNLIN : -0.186
